assay: clinical; settings: male, human, in vivo, po, 100 mg
REPORTED ENDPOINT: Tmax (min)
Report only the number, with the unit min understood.

Request: Give the measured Tmax of N[C@@H](Cc1ccc(O)c(O)c1)C(=O)O .
Result: 30

---

test: clinical; details: male, human, in vivo, po, 100 mg
REPORTED ENDPOINT: Cmax (ng/mL)
Report only the number, with the unit ng/mL understood.

Request: Which Cmax is reported for this molecule? N[C@@H](Cc1ccc(O)c(O)c1)C(=O)O
Result: 1950
